Biological target: human Bradykinin B1 receptor (Homo sapiens)
Sequence (P46663 1-353): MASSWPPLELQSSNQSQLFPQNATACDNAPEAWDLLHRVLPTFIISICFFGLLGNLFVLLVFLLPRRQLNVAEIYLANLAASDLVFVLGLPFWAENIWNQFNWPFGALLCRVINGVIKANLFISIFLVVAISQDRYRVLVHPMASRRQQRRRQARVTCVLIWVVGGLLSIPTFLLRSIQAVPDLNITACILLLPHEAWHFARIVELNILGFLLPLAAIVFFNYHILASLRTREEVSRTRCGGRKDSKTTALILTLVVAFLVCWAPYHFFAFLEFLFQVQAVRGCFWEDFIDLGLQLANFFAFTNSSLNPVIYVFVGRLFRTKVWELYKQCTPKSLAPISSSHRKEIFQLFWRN
Assay: Calcium flux assay (FLIPR), CHO-K1 cells expressing human Bradykinin B1 receptor, absence of 0.1% BSA (hB1 free IC50)
Conditions: absence of 0.1% BSA in assay buffer
IC50 listing for selected compounds.
A number alone suffices; assume nM.

O=C(O)c1cc(NC(=O)C2(c3ccc(C(F)(F)F)cc3F)CC2)cc(Cl)c1-c1cnn(C2CCC2)c1
8.9
CCC(F)(F)c1ccc(-c2ccc(NC(=O)C3(c4ccc(F)c(F)c4)CC3)cc2C(=O)O)cn1
2500
Cc1ccc(C2(C(=O)Nc3cc(F)c(-c4cnn(C5CCC5)c4)c(C(=O)O)c3)CC2)c(F)c1
14
Cc1ccc(C2(C(=O)Nc3ccc(-c4cnn(C5CC5)c4)c(C(=O)O)c3)CC2)c(F)c1
500
O=C(O)c1cc(NC(=O)C2(c3cc(C(F)(F)F)ccc3F)CC2)ccc1-c1cnn(C2CCC2)c1
62
O=C(O)c1cc(NC(=O)C2(c3ccc(OC(F)(F)F)cc3F)CC2)cc(Cl)c1-c1ccc(C(F)F)nc1
62

Q. Identify measured IC50 associated with `CC(C)(C)c1cnn(-c2ccc(NC(=O)C3(c4ccc(OC(F)(F)F)cc4F)CC3)cc2C(=O)O)c1`
A. 110

* * *

biological target: human Bradykinin B1 receptor (Homo sapiens); assay: Calcium flux assay (FLIPR), CHO-K1 cells expressing human Bradykinin B1 receptor, absence of 0.1% BSA (hB1 free IC50); details: absence of 0.1% BSA in assay buffer
measurement name: IC50 (µM)
A number alone suffices; assume µM.

Worked cases, answers included:
CCOc1ccc(-c2ccc(NC(=O)C3(c4cccc(Cl)c4)CC3)cc2C(=O)O)cn1
0.14
CCc1ccc(-c2ccc(NC(=O)C3(c4ccc(C(F)(F)F)cc4F)CC3)cc2C(=O)O)cn1
0.021
CCC(F)(F)c1ccc(-c2c(C)cc(NC(=O)C3(c4ccc(C(F)(F)F)cc4F)CC3)cc2C(=O)O)cn1
0.24

# ---- query compound ----
Q. Quote human Bradykinin B1 receptor (Homo sapiens) IC50 for entry `O=C(O)c1cc(NC(=O)C2(c3ccc(C(F)(F)F)cc3F)CC2)ccc1-n1cc(C2CCC2)cn1` .
A. 0.62

* * *

target: native human Bradykinin B1 receptor (Homo sapiens, UniProt P46663); construct: which express native human Bradykinin B1 receptor after induction with human IL-1beta; Coriell Institute; assay: Calcium flux assay (FLIPR) with IMR-90 human fibroblasts expressing Bradykinin B1 receptor after IL-1beta induction (hB1 IMR-90); settings: IMR-90 human fibroblasts after IL-1beta induction, read-out: hB1 IMR90 IC50
measurement name: pIC50
Expect pIC50 as a plain number equal to -log10 of the molar concentration.

Cc1cc(NC(=O)C2(c3ccc(OC(F)(F)F)cc3F)CC2)cc(C(=O)O)c1-c1cnn(C2CCC2)c1
7.89
CCC(F)(F)c1ccc(-c2c(Cl)cc(NC(=O)C3(c4ccc(OC(F)(F)F)cc4F)CC3)cc2C(=O)O)cn1
7.46
CC(C)(C)c1ccn(-c2ccc(NC(=O)C3(c4ccc(C(F)(F)F)cc4F)CC3)cc2C(=O)O)n1
5.54

# ---- query compound ----
Q. Identify measured pIC50 associated with `CCC(F)(F)c1ccc(-c2ccc(NC(=O)C3(c4ccc(C(F)(F)F)cc4F)CC3)cc2C(=O)O)cn1`
A. 7.36

* * *

target: human Bradykinin B1 receptor (Homo sapiens, UniProt P46663); test: Calcium flux assay (FLIPR), CHO-K1 cells expressing human Bradykinin B1 receptor, absence of 0.1% BSA (hB1 free IC50); conditions: absence of 0.1% BSA in assay buffer
IC50 listing for selected compounds.
Please provide the amount together with its unit, number first.

Q. Quote human Bradykinin B1 receptor (Homo sapiens, UniProt P46663) IC50 for entry `O=C(O)c1cc(NC(=O)C2(c3ccc(C(F)(F)F)c(F)c3)CC2)cc(F)c1-c1cnn(C2CCC2)c1` .
A. 18 nM

Q. Quote human Bradykinin B1 receptor (Homo sapiens, UniProt P46663) IC50 for entry `CC(F)(F)c1ccc(-c2ccc(NC(=O)C3(c4ccc(OC(F)(F)F)cc4F)CC3)cc2C(=O)O)cn1` .
A. 190 nM

Q. Quote human Bradykinin B1 receptor (Homo sapiens, UniProt P46663) IC50 for entry `O=C(O)c1cc(NC(=O)C2(c3cccc(Cl)c3)CC2)ccc1-c1cnn(C2CCC2)c1` .
A. 300 nM

* * *

Target: human Bradykinin B1 receptor (Homo sapiens, UniProt P46663)
Sequence (P46663 1-353): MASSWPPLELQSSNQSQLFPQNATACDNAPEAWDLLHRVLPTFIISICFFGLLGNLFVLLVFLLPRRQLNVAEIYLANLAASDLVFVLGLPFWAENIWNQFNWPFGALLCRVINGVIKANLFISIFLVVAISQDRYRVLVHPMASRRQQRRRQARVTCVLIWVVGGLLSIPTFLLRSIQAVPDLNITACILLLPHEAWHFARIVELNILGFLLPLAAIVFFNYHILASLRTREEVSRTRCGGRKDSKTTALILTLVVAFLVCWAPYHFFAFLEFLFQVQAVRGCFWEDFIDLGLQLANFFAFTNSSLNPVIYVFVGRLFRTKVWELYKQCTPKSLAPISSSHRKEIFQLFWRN
Assay: Calcium flux assay (FLIPR), CHO-K1 cells expressing human Bradykinin B1 receptor, absence of 0.1% BSA (hB1 free IC50)
Settings: absence of 0.1% BSA in assay buffer
pIC50 listing for selected molecules.
Expect pIC50 as a plain number equal to -log10 of the molar concentration.

O=C(O)c1cc(NC(=O)C2(c3ccc(Cl)cc3F)CC2)cc(F)c1-c1cnn(C2CCC2)c1 [Example 41]
8.06

Q. Identify measured pIC50 associated with O=C(O)c1cc(NC(=O)C2(c3ccc(C(F)(F)F)cc3F)CC2)cc(F)c1-c1cnn(CC2CC2)c1 [Example 126]
A. 7.85

Q. Identify measured pIC50 associated with CC(C)(C)c1cn(-c2c(F)cc(NC(=O)C3(c4ccc(OC(F)(F)F)cc4F)CC3)cc2C(=O)O)cn1 [Example 91]
A. 7.70

Q. Identify measured pIC50 associated with O=C(O)c1cc(NC(=O)C2(c3cc(F)c(F)cc3F)CC2)ccc1-c1ccc(C(F)(F)F)nc1 [Example 8]
A. 6.16

Q. Identify measured pIC50 associated with CCn1cc(-c2c(F)cc(NC(=O)C3(c4ccc(C(F)(F)F)cc4F)CC3)cc2C(=O)O)cn1 [Example 138]
A. 7.74

Q. Identify measured pIC50 associated with CC(C)Cn1cc(-c2ccc(NC(=O)C3(c4ccc(OC(F)(F)F)cc4F)CC3)cc2C(=O)O)cn1 [Example 75]
A. 7.96

Q. Identify measured pIC50 associated with O=C(O)c1cc(NC(=O)C2(c3ccc(F)cn3)CC2)cc(F)c1-c1cnn(C2CCC2)c1 [Example 44]
A. 7.35

* * *

pIC50 listing for selected compounds.
target: human Bradykinin B1 receptor (Homo sapiens); assay: Calcium flux assay (FLIPR), CHO-K1 cells expressing human Bradykinin B1 receptor, absence of 0.1% BSA (hB1 free IC50); details: absence of 0.1% BSA in assay buffer
Expect pIC50 as a plain number equal to -log10 of the molar concentration.

Worked cases, answers included:
CC[C@H](C)n1cc(-c2c(F)cc(NC(=O)C3(c4ccc(C(F)(F)F)cc4F)CC3)cc2C(=O)O)cn1 [Example 135]
7.48
CC(O)c1ccc(-c2ccc(NC(=O)C3(c4ccc(C(F)(F)F)cc4F)CC3)cc2C(=O)O)cn1 (stereo not drawn) [Example 33]
6.34
CC[C@H](C)n1cc(-c2ccc(NC(=O)C3(c4ccc(OC(F)(F)F)cc4F)CC3)cc2C(=O)O)cn1 [Example 132]
7.25

Q. Identify measured pIC50 associated with CC(C)Cn1cc(-c2ccc(NC(=O)C3(c4ccc(F)cc4F)CC3)cc2C(=O)O)cn1 [Example 116]
A. 6.68

* * *

Target: human Bradykinin B1 receptor (Homo sapiens, UniProt P46663)
Assay: Calcium flux assay (FLIPR), CHO-K1 cells expressing human Bradykinin B1 receptor, absence of 0.1% BSA (hB1 free IC50)
Details: absence of 0.1% BSA in assay buffer
Method: The potency to inhibit the Bradykinin B1 receptor was determined for the Compound Examples of this invention in a cell-based fluorescent calcium-mobilisation assay. […] The change of the intracellular Ca^2+ concentration is monitored with a fluorescent plate reader FLIPR^TETRA® (Molecular Devices). […] The addition of agonist 20 μl per well to the assay plate is carried out on the FLIPR instrument while continuously monitoring Ca2+-dependent fluorescence at 538 nm. […] RFU means relative fluorescence units. […]
log10(IC50) listing for selected compounds.
Could you please treat all values as log10 of IC50 in nM?

O=C(O)c1c(-c2cnn(C3CCC3)c2)ccc(NC(=O)C2(c3ccc(C(F)(F)F)cc3F)CC2)c1F [Example 98]
3.43
O=C(O)c1cc(NC(=O)C2(c3ccc(OC(F)(F)F)cc3F)CC2)ccc1-c1cn(C2CCC2)cn1 [Example 170]
3.32
O=C(O)c1cc(NC(=O)C2(c3ccc(F)cc3F)CC2)cc(F)c1-c1cnn(C2CCC2)c1 [Example 40]
1.20
CC(C1CC1)n1cc(-c2ccc(NC(=O)C3(c4ccc(C(F)(F)F)cc4F)CC3)cc2C(=O)O)cn1 (stereo not shown) [Example 153]
0.94
Cc1ccc(C2(C(=O)Nc3cc(F)c(-c4cnn(C(C)C)c4)c(C(=O)O)c3)CC2)c(F)c1 [Example 87]
1.58
Cc1cc(NC(=O)C2(c3ccc(C(F)(F)F)cc3F)CC2)cc(C(=O)O)c1-c1ccc(C(F)F)nc1 [Example 109]
2.89

Q. Identify measured log10(IC50) associated with CCC(F)(F)c1ccc(-c2c(Cl)cc(NC(=O)C3(c4ccc(C(F)(F)F)cc4F)CC3)cc2C(=O)O)cn1 [Example 105]
A. 1.23

Values compiled from patent US12023319B2.
